Assay: qHTS Assay for Agonists of the Thyroid Stimulating Hormone Receptor: Activators of Intracellular cAMP Concentrations in Parental HEK 293; further: % of control where 0% means no effect; nearly all actives have a fitted effect of over 55% in size
Conditions: parental HEK293 CNG cAMP sensor, membrane potential fluorescence; series mostly up to 57.1 µM
Among all 73,000 compounds or so, about 1,800 (2.5%) were called active. Inconclusive results (about 13%) are left out. For the sample, actives were picked, then their nearest neighbours and some compounds at random.
value_kind: activation

- compound: "CCOC(=O)N/N=C1/C[C@@H](O)[C@@H](O)[C@@H]2[C@@H]3C(=O)N(CC)C(=O)[C@H]3CC[C@H]12"
  observed_result: "2.56% [at 11.4 µM] (inactive)"
- compound: "C[C@@H](c1ccccc1)N1C(=O)[C@H]2[C@H]3[C@H](O)[C@H](O)C/C(=N/OC[C@@H](O)COCc4ccco4)[C@@H]3CC[C@@H]2C1=O"
  observed_result: "5.7% [at 11.4 µM] (inactive)"
- compound: "Cc1ccc(S(=O)(=O)N2CC(=O)Nc3ccccc32)cc1C"
  observed_result: "-6.15% [at 11.4 µM] (inactive)"
- compound: "COc1cc(Cl)c(S(=O)(=O)n2cnc(C)c2)cc1Cl"
  observed_result: "12.1% [at 11.4 µM] (inactive)"
- compound: "O=C1[C@H]2[C@H]3[C@H](O)[C@H](O)C/C(=N/OCc4ccccc4)[C@H]3CC[C@@H]2C(=O)N1Cc1ccccc1"
  observed_result: "-2.25% [at 11.4 µM] (inactive)"
- compound: "Cc1cc(C)cc(C#CC2C=CC(Oc3ccc(C4CCCC4)cc3)C(CO)O2)c1 (stereo not given)"
  observed_result: "16.7% [at 11.4 µM] (inactive)"
- compound: "Cc1cc(OCC(=O)O)c(Cl)cc1Cl"
  observed_result: "18.1% [at 11.4 µM] (inactive)"
- compound: "COc1ccc(C2=NOC(C(=O)NCc3ccco3)C2)cc1OC (stereo not given)"
  observed_result: "8.46% [at 2.29 µM] (inactive)"
- compound: "CC1(C)OC(C(O)(c2ccccc2)c2ccccc2)C(C(O)(c2ccccc2)c2ccccc2)O1 (stereo not given)"
  observed_result: "25.8% [at 11.4 µM] (inactive)"
- compound: "Cc1ccc(N(CC(O)CN2CCCC2)S(=O)(=O)c2ccccc2)cc1 (stereo not given)"
  observed_result: "9.44% [at 11.4 µM] (inactive)"
- compound: "CN1CCc2nc(-c3ccccc3)c(-c3ccccc3)cc2C1"
  observed_result: "0.173% [at 11.4 µM] (inactive)"
- compound: "CO/N=C\\[C@@H](C)[C@H](OCc1ccccc1)C(C)C"
  observed_result: "-0.643% [at 11.4 µM] (inactive)"
- compound: "CO[C@H]1COC(=O)[C@@H](C)NC(=O)C/C=C\\[C@@H](C)[C@H](OC)COC(=O)C/C=C\\[C@@H]1C"
  observed_result: "2.45% [at 11.4 µM] (inactive)"
- compound: "O=C1OCCC=C1[C@@H](O)CCc1ccccc1"
  observed_result: "-4.2% [at 11.4 µM] (inactive)"
- compound: "CC(=O)OCC1OC(C#CCCCc2ccccc2)C=CC1OC(C)=O (stereo not given)"
  observed_result: "-0.905% [at 11.4 µM] (inactive)"
- compound: "C/C(CCN1CCc2nc(-c3ccccc3)c(-c3ccccc3)cc2C1)=N\\O[C@@H](C)c1cn([C@@H]2COC[C@@H]2O)nn1"
  observed_result: "0.56% [at 11.4 µM] (inactive)"
- compound: "O=C(c1ccc([N+](=O)[O-])cc1)[C@@H](Br)[C@@H](Br)c1ccnc2ccccc12"
  observed_result: "8.13% [at 11.4 µM] (inactive)"
- compound: "CCOc1cc(/C=N/O)cc(Br)c1OC"
  observed_result: "15% [at 11.4 µM] (inactive)"
- compound: "COC(=O)C(C(=O)OC)[C@@H]1CCCC(=O)C1"
  observed_result: "4.23% [at 11.4 µM] (inactive)"
- compound: "COc1cccc([C@H](O)Cn2cc(-c3ccc(CON=C(C)C)cc3)nn2)c1"
  observed_result: "14.1% [at 11.4 µM] (inactive)"
- compound: "CCOC(=O)[C@]1(C(/C=C/c2ccco2)NC(=O)OC)CCCC1=O (stereo not given in full)"
  observed_result: "0.322% [at 11.4 µM] (inactive)"
- compound: "CC(=O)OCC1OC(C#Cc2ccccc2Cl)C=CC1OC(C)=O (stereo not given)"
  observed_result: "-0.512% [at 11.4 µM] (inactive)"
- compound: "CO[C@H]1COC(=O)CCC[C@@H](C)[C@H](OC)COC(=O)[C@@H](C)NC(=O)C/C=C\\[C@@H]1C"
  observed_result: "4.76% [at 11.4 µM] (inactive)"
- compound: "S=c1c2[nH]cnc2ncn1CCSc1ncnc2nc[nH]c12"
  observed_result: "-1.69% [at 11.4 µM] (inactive)"
- compound: "O=C(O)COc1c(Cl)cc(Cl)c2cccnc12"
  observed_result: "14.2% [at 11.4 µM] (inactive)"
- compound: "C#CCC(C(=O)OC)(C(=O)OC)C(C[N+](=O)[O-])c1ccccc1 (stereo not given)"
  observed_result: "-0.955% [at 11.4 µM] (inactive)"
- compound: "C/C(CCN1CCCCc2nc(C)c(C)cc21)=N\\O[C@@H](C)c1cn([C@@H]2COC[C@@H]2O)nn1"
  observed_result: "6.27% [at 11.4 µM] (inactive)"
- compound: "COC(=O)[C@@H]1CC[C@H](C)[C@@H](c2ccc(C)cc2)N1C(=O)c1ccc(/C=N\\OC[C@@H](O)COCc2ccco2)cc1"
  observed_result: "44.4% [at 11.4 µM] (inactive)"
- compound: "Cc1cc2c(cc1C)NC1=C(N2)O[C@H](c2c[nH]c3ccc(COc4ccccc4)cc23)C1=O"
  observed_result: "3.07% [at 11.4 µM] (inactive)"
- compound: "CC(C)(C)c1ccc(OC2C=CC(C#Cc3ccccc3)OC2CO)cc1 (stereo not given)"
  observed_result: "12.6% [at 11.4 µM] (inactive)"
- compound: "C/C(=C\\C(=O)c1ccccc1)Nc1cccc(O)c1"
  observed_result: "5.02% [at 11.4 µM] (inactive)"
- compound: "CC(C)CN1CCc2nc(-c3ccccc3)c3c(c2C1)COC(C)C3 (stereo not given)"
  observed_result: "-2.08% [at 11.4 µM] (inactive)"
- compound: "CCCNC(=O)OC[C@@H]1O[C@H](c2ccccc2)C=C[C@@H]1Oc1ccc(OC)cc1"
  observed_result: "1.38% [at 11.4 µM] (inactive)"
- compound: "CO[C@H]1COC(=O)[C@H](Cc2ccccc2)NC(=O)C/C=C\\[C@@H](C)[C@H](OC)COC(=O)C/C=C\\[C@@H]1C"
  observed_result: "25.1% [at 11.4 µM] (inactive)"
- compound: "CC(C)[C@@H](OCc1ccccc1)[C@H](C)/C=N\\OC[C@@H](C)[C@H](OCc1ccccc1)C(C)C"
  observed_result: "2.03% [at 11.4 µM] (inactive)"

Each recorded value in this set is attributed to PubChem BioAssay AID938.
